Biological target: 72 kDa type IV collagenase (Homo sapiens, UniProt P08253)
Sequence (P08253 whole entry): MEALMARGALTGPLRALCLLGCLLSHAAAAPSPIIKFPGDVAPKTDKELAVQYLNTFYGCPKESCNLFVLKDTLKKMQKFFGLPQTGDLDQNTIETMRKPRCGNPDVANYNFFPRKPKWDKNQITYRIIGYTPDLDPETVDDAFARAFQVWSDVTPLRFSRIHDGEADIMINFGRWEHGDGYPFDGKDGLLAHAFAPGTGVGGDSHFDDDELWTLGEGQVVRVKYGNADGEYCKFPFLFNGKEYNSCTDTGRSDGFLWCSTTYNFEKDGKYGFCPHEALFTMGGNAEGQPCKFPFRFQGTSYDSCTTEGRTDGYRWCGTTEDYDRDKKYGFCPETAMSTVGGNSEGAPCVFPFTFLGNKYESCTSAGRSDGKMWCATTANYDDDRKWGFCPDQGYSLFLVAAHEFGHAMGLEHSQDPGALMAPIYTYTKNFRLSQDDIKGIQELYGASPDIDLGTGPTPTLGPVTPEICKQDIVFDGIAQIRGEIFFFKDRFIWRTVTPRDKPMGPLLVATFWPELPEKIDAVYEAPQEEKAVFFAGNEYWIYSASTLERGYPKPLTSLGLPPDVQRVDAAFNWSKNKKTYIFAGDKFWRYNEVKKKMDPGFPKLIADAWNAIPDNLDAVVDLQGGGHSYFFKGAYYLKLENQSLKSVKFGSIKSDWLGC
Assay: Dose Response validation of uHTS RPN11 inhibitor hits using a MMP-2 Fluorescence assay.
Assay type: functional
Activity calls are given as the source filed them.
recordedEndpoint: IC50

// worked examples, IC50 included
INSERT INTO results (molecule, recordedendpoint, reportedresult) VALUES
  ('CN1CCc2c(sc3c2C(=O)NC(c2cn(Cc4ccccc4)c4ccccc24)N3)C1 (centres undefined)', 'IC50', '> 100 µM (inactive)'),
  ('CCCC1=NN2C(=N)/C(=C\c3ccc(SCc4ccco4)o3)C(=O)N=C2S1', 'IC50', '6.34 µM (active)'),
  ('COCC/N=c1\scc(-c2cc(OC)c(OC)c(OC)c2)n1/N=C/c1c(C)[nH]c2ccccc12', 'IC50', '> 100 µM (inactive)');

Consider now this further molecule.
Query: Item under review: COc1ccc(CN2C(=O)NC(=O)/C(=C\c3ccco3)C2=O)cc1 . Reported IC50?
Result: 12.7 µM (active)

###

IC50 listing for selected molecules.
Target: Polyadenylate-binding protein 1 (Homo sapiens, UniProt P11940)
Sequence (P11940 whole entry): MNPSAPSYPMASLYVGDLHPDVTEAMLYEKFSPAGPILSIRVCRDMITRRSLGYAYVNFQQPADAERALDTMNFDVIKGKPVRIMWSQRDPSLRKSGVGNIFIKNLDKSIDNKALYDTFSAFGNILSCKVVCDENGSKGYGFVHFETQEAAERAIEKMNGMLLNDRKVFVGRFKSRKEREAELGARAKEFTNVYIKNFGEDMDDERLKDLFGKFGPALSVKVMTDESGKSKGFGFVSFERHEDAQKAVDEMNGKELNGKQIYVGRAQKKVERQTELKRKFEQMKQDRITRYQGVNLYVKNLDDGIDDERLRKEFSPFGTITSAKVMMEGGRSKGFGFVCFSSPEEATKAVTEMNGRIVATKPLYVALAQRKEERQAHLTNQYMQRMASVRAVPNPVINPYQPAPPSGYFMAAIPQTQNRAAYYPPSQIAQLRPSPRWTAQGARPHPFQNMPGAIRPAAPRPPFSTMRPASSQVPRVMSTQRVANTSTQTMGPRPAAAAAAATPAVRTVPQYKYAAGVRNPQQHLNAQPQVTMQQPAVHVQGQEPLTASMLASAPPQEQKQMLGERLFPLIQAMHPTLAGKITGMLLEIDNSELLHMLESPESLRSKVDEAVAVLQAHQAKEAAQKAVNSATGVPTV
Assay: PABP1 MLLE–PAM2 binding inhibitor potency, dose response, biochemical, fluorescence polarization, FITC-PAM2 peptide (AID 602259)
Assay type: functional
Conditions: read-out: IC50_Mean
Activity calls are given as the source filed them.

// worked examples, IC50 included
INSERT INTO assay_data (molecule, reportedresult) VALUES
  ('O=C(CSc1ccc(-c2cccnc2)nn1)c1ccc([N+](=O)[O-])cc1', '> 66 µM (inactive)'),
  ('C#CCOCCOCCOCCNc1nc(N2CCN(C(=O)[C@H]([C@@H](C)CC)n3cc([C@@H](N)CO)nn3)CC2)nc(N2CCN(C(=O)[C@H]([C@@H](C)CC)n3cc([C@@H](N)CC(C)C)nn3)CC2)n1', '43.1 µM (inactive)'),
  ('Fc1ccc(NCc2cccnc2)cc1F', '49.1 µM (inactive)'),
  ('COc1cccc(/C=C2\SC(=O)N(CC(=O)NC3C=CS(=O)(=O)C3)C2=O)c1 (configuration not stated)', '56.6 µM (inactive)'),
  ('CC(=O)c1ccc(NC(=O)C2CCCNC2=O)cc1 (configuration not stated)', '> 66 µM (inactive)');

Query: Item under review: O=C(N/C(=C\c1ccco1)C(=O)N1CCCC1CO)c1ccccc1 (configuration not stated) . Reported IC50?
Result: > 66 µM (inactive)

Query: Item under review: O=C(c1ccc(F)cc1)n1c(=S)nc2ccccn21 . Reported IC50?
Result: > 66 µM (inactive)

Query: Item under review: CCOC(=O)c1c(-c2ccc(C)o2)csc1NC(=S)NC(=O)c1ccc(F)cc1 . Reported IC50?
Result: > 66 µM (inactive)

Query: Item under review: O=c1[nH]c(CN2CCc3ccccc3C2)nc2ccccc12 . Reported IC50?
Result: > 66 µM (inactive)

Query: Item under review: CCN=C(S)N=Nc1c(O)[nH]c2ccc([N+](=O)[O-])cc12 . Reported IC50?
Result: > 66 µM (inactive)

Query: Item under review: O=C(NNc1ccc(Cl)cc1)c1sccc1Cl . Reported IC50?
Result: > 66 µM (inactive)

Query: Item under review: CCOc1ccc(/C=c2\sc3nc(-c4ccco4)nn3c2=O)cc1OCC . Reported IC50?
Result: 48.8 µM (inactive)
